STUDY_SYSTEM: T1, human GFRα3 expressed with a C-terminal myc-myc-hexahistidine tag (human, UniProt O60609 32-374, biotinylated (sites not given) in ELISA format 2 and in the Octet cross-competition; not in SPR)
T1 construct: also called hGFRα3-mmh; hGFRα3-mmH
T1 sequence (O60609 other isoform, or with tags, fused parts or gaps limits assumed): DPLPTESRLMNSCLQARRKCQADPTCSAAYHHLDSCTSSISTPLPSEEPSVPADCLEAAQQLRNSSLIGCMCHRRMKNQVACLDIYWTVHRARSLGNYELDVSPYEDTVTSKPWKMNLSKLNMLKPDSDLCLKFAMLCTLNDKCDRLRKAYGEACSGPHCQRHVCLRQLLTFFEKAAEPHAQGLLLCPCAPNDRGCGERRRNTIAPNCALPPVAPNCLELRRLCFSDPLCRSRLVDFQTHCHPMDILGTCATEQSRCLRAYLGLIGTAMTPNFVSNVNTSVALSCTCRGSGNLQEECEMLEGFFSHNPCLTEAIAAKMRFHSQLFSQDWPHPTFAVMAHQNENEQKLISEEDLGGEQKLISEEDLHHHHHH
PROTOCOL_TEXT: Octet cross-competition; biotin-hGFRα3-mmH pre-saturated with first antibody H4H2357S
ENDPOINT_NAME: binding response of second antibody (nm)
Note: unit nm is implicit; provide only the numeric part.

Recall and state the measured binding response of second antibody (nm) for H4H2295S (antibody, human IgG4, V domains shown, human IgG4 Fc (H4H)) VH: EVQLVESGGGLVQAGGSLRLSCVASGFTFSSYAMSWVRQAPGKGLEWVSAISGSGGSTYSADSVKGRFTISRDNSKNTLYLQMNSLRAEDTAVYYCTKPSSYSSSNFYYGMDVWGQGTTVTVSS VL: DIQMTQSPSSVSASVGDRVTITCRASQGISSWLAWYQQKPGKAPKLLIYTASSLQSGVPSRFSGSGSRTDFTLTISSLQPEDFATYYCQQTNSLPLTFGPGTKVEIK . 0.12

Recall and state the measured binding response of second antibody (nm) for H4H2342P (antibody, human IgG4, V domains shown, human IgG4 Fc (H4H)) VH: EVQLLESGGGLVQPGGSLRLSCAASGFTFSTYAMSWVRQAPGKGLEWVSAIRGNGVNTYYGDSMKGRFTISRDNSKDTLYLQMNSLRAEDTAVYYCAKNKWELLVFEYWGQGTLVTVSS VL: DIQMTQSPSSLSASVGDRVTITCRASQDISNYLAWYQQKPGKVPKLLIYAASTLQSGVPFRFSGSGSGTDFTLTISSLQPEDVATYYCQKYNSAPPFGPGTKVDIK . -0.01

Recall and state the measured binding response of second antibody (nm) for H4H2236N3 (antibody, human IgG4, V domains shown, human IgG4 Fc (H4H)) VH: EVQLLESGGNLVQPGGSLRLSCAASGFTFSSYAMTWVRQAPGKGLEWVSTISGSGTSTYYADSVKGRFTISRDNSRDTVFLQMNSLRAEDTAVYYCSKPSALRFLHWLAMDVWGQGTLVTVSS VL: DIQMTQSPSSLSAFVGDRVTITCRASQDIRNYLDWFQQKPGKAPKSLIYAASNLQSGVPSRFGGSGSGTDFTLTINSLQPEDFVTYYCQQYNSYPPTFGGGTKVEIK . 0.04
